Source of measurements: PubChem BioAssay (EPA / NIEHS)

read-out: matrix metalloproteinase-3 (MMP3), MMP3 (gene 4314); experiment: LTEA_HepaRG_MMP3: Life Technologies and Expression Analysis (LTEA) Assay for matrix metalloproteinase-3 (MMP3) using HepaRG (AID 2283519); conditions: mRNA level, 48 h; actives raise or lower the signal
The source made the active and inactive calls. How the source made its calls: active means hit-call score of the fitted dose curve at least 0.9, where 1 is the maximum; inactive means score below 0.9.
Your response should consist of one outcome taken from true (active), false (inactive)

Task item: For this molecule, state the assay outcome: "CC(C)OC(=O)C(C)(C)Oc1ccc(C(=O)c2ccc(Cl)cc2)cc1"
Reply: true

Task item: Also need "NC(=Nc1ccccc1)Nc1ccccc1" , thanks.
Reply: false

Task item: Proceed to "O=C1OC(c2ccc(O)cc2)(c2ccc(O)cc2)c2ccccc21"
Reply: false

Task item: What about "OCC(CO)n1cnc(-c2ccc(F)cc2)c1-c1ccnc(Oc2ccccc2)n1" ?
Reply: true

Task item: And "c1ccc2occc2c1" ?
Reply: false

Task item: Record: "O=C1c2c(O)cccc2Cc2cccc(O)c21"
Reply: false

Task item: Another molecule to look at: "S=c1[nH]c2ccccc2s1"
Reply: false

Task item: Similarly, "Cc1cn([C@H]2C=C[C@@H](CO)O2)c(=O)[nH]c1=O" ?
Reply: false

Task item: Request: CC(=O)CC(c1ccccc1)c1c(O)c2ccccc2oc1=O (configuration not stated)
Reply: false

Task item: Please give the result for "O=Cc1ccccc1C=O" too.
Reply: false

Task item: Please answer likewise for "C=CCCCCCCCCCCCC"
Reply: false

Task item: Next up: "CN(C)C(=O)NC1(c2ccccc2)CCN(CCC[C@]2(c3ccc(Cl)c(Cl)c3)CCCN(C(=O)c3ccccc3)C2)CC1"
Reply: true
